Assay Info: Langmuir isotherm, quartz crystal microbalance with dissipation (QCM-D)
Type: binding
Condition Details: QCM-D, 25° C., Langmuir isotherm fit
Quantity: Kd

# input Looking for the measured Kd of (Dopa)2-(Ala-Aib)3-RIGSY-OH [PEPTIDE-3] , can you help?
# output 260 nM

Numbers sourced from patent US20090018642A1.
